# experimental.target: Acyl-CoA: Cholesterol Acyltransferase (ACAT) (Rattus norvegicus, UniProt Q7TQM4)
# Construct: Microsomes were obtained by differential centrifugation; from tissue; host or cells: liver microsomes of male Sprague Dawley rats
# Sequence (Q7TQM4 whole entry): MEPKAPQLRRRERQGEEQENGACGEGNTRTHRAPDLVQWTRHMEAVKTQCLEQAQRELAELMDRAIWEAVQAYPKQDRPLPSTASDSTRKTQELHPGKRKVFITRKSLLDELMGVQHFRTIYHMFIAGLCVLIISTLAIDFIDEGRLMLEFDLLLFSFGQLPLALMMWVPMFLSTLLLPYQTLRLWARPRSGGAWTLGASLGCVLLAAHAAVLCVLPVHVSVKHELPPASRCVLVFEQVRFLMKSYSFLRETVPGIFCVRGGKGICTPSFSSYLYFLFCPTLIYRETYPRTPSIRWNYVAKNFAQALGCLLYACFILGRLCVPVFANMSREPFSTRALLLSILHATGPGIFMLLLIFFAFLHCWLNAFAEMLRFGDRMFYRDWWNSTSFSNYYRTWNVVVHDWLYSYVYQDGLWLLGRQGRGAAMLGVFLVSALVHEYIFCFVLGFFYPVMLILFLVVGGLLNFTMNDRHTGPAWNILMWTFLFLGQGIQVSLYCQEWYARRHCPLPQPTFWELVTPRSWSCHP
# assay.explanation: Inhibition of acyl-CoA: cholesterol acyltransferase (ACAT) in hepatic microsomes (in vitro)
# Format: biochemical, rat (male Sprague Dawley)
# conditions: rat hepatic microsomes, 75 μM 14C-oleoyl-CoA, pH 7.4, 37° C.; read-out: In Vitro ACAT IC50
pIC50: −log10 of the molar value.
Quick reference: pIC50 of the listed items.
measured.parameter: pIC50

| smiles.code | assay.value |
| --- | --- |
| CCCCCCCN(CCCCCSc1nc2c([nH]1)-c1ccccc1OCOc1ccccc1-2)C(=O)Nc1ccc(F)cc1F | 7.49 |
| CCCCCCCN(CCCCCSc1nc(-c2ccccc2)c(-c2ccccc2)[nH]1)C(=O)OCc1ccccc1 | 8.05 |
| CCCCCCCN(CCCCCSc1nc(-c2ccccc2)c(-c2ccccc2)[nH]1)C(=S)Nc1cccc(F)c1 | 6.89 |
| CCCCCCCN(CCCCCSc1nc(-c2ccccc2)c(-c2ccccc2)[nH]1)C(=O)CCCC | 7.52 |
| CCCCCCCN(CCCCCSc1nc(C(C)C)c(C(C)C)[nH]1)C(=O)CC1CCCCC1 | 7.52 |
| CCCCCCCN(CCCCCSc1nc(-c2ccc(OC)cc2)c(-c2ccc(OC)cc2)[nH]1)C(=O)CCC | 6.15 |
| CCCCCCCN(CCCCCSc1nc(-c2ccc(N(C)C)cc2)c(-c2ccc(N(C)C)cc2)[nH]1)C(=O)CC1CCCCC1 | 7.30 |
